target: Complex III: ubiquinol: ferricytochrome C oxidoreductase; assay: Complex III activity in lysed rat brain mitochondria; assay type: biochemical; conditions: read-out: IC50 for inhibition of complex III activity; 15 min pre-incubation at room temperature; mean ± SEM
Recorded metric: pIC50
By convention, pIC50 is the negative base-10 log of a molar concentration.

Measured pIC50 of O=C(O)CC1=CC(=O)C(=O)C=C1 : 3.96
